# assay name: CCTE_Shafer_MEA_dev_spike_duration_mean: CCTE's Neural Network Formation Assay for Mean Spike Duration, Shafer Lab (AID 2284051);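 note: mean network spike duration pooled as area under curve over DIV 5 to 12 recordings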;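 for AC50: potency for a decrease in mean network spike duration versus DMSO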
Activity calls are given as the source filed them. Rule for the calls: active = hit-call score of the fitted dose curve at least 0.9, where 1 is the maximum; inactive = score below 0.9.
experimental readout: AC50

Query: For the compound CCOc1ccc2[nH]cc(C(=O)NCc3ccccc3)c(=O)c2n1 , what AC50 is on record?
Reply: inactive

Query: For the compound FC(F)(F)COC(OCC(F)(F)F)OCC(F)(F)F , what AC50 is on record?
Reply: inactive

Query: For the compound COc1cc2c(c(OC)c1OC)-c1ccc(OC)c(=O)cc1[C@@H](NC(C)=O)CC2 , what AC50 is on record?
Reply: 24.8 nM (active)

Query: For the compound FC(F)(F)C(F)(F)C(F)(F)C(F)(F)C(F)(F)C(F)(F)I , what AC50 is on record?
Reply: inactive

Query: For the compound CC[C@H](C)C(=O)O[C@H]1C[C@H](O)C=C2C=C[C@H](C)[C@H](CC[C@@H](O)C[C@@H](O)CC(=O)O)[C@H]21 , what AC50 is on record?
Reply: 37 nM (active)

More entries:
Query: For the compound Cn1cc[nH]c1=S , what AC50 is on record?
Reply: inactive

Query: For the compound C[C@]12C=CC(=O)C=C1CC[C@H]1[C@@H]3C[C@@H](O)[C@](O)(C(=O)CO)[C@@]3(C)C[C@H](O)[C@@]12F , what AC50 is on record?
Reply: inactive

Query: For the compound c1ccc2cc3ccccc3cc2c1 , what AC50 is on record?
Reply: inactive

Query: For the compound OCCC(F)(F)C(F)(F)C(F)(F)C(F)(F)F , what AC50 is on record?
Reply: inactive

Query: For the compound O=C(Cl)C(F)(F)C(F)(F)C(F)(F)C(=O)Cl , what AC50 is on record?
Reply: inactive

Query: For the compound OC(Cn1cncn1)(Cn1cncn1)c1ccc(F)cc1F , what AC50 is on record?
Reply: inactive

====

# assay name: ACEA_ER_80hr: ACEA Biosciences xCELLigence Real-Time Cell Analysis on Estrogen Receptor Agonism for Proliferation (AID 2282667)
# particulars: T47D proliferation, impedance (xCELLigence), 80 h
Records with an inconclusive call do not appear. The source made the active and inactive calls. The calls were made as follows: active = hit-call score of the fitted dose curve at least 0.9, where 1 is the maximum; inconclusive = response in the unintended direction; inactive = score below 0.9.
Parameter call: string, one of active, inactive

Query: Dear colleague, could you share the recorded outcome for CC(=O)c1ccccc1 when you have a moment?
Reply: inactive

Query: Dear colleague, could you share the recorded outcome for C[Si](C)(C)C(F)(F)C(F)(F)C(F)(F)F when you have a moment?
Reply: inactive

Query: Dear colleague, could you share the recorded outcome for CCCCCCCC1CCC(=O)O1 (centres undefined) when you have a moment?
Reply: inactive

Query: Dear colleague, could you share the recorded outcome for O=C1CN(N=Cc2ccc([N+](=O)[O-])o2)C(=O)N1 when you have a moment?
Reply: inactive

Query: Dear colleague, could you share the recorded outcome for S=P(N1CC1)(N1CC1)N1CC1 when you have a moment?
Reply: inactive

Query: Dear colleague, could you share the recorded outcome for O=C(O)c1cccc(C(=O)O)c1 when you have a moment?
Reply: inactive

Query: Dear colleague, could you share the recorded outcome for OC[C@H]1O[C@@H]2O[C@H]3[C@H](O)[C@@H](O)[C@@H](O[C@H]4[C@H](O)[C@@H](O)[C@@H](O[C@H]5[C@H](O)[C@@H](O)[C@@H](O[C@H]6[C@H](O)[C@@H](O)[C@@H](O[C@H]7[C@H](O)[C@@H](O)[C@@H](O[C@H]1[C@H](O)[C@H]2O)O[C@@H]7CO)O[C@@H]6CO)O[C@@H]5CO)O[C@@H]4CO)O[C@@H]3CO when you have a moment?
Reply: inactive

Query: Dear colleague, could you share the recorded outcome for NC(=O)N1c2ccccc2C=Cc2ccccc21 when you have a moment?
Reply: active

Query: Dear colleague, could you share the recorded outcome for Cn1c(=O)c2[nH]cnc2n(C)c1=O when you have a moment?
Reply: inactive

Query: Dear colleague, could you share the recorded outcome for O=S(=O)(O)c1ccc(N=Nc2c(O)ccc3cc(S(=O)(=O)O)ccc23)cc1 when you have a moment?
Reply: inactive

More entries:
Query: Dear colleague, could you share the recorded outcome for COc1cc2c(c(OC)c1OC)-c1ccc(OC)c(=O)cc1[C@@H](NC(C)=O)CC2 when you have a moment?
Reply: inactive

Query: Dear colleague, could you share the recorded outcome for c1ccc2c(c1)-c1cccc3c1c-2cc1ccccc13 when you have a moment?
Reply: inactive

Query: Dear colleague, could you share the recorded outcome for FC(F)=C(F)C(F)(F)C(F)(F)C(F)(F)C(F)(F)C(F)(F)C(F)(F)F when you have a moment?
Reply: inactive

Query: Dear colleague, could you share the recorded outcome for CC(C)C(=O)Nc1ccc([N+](=O)[O-])c(C(F)(F)F)c1 when you have a moment?
Reply: active

Query: Dear colleague, could you share the recorded outcome for FC(F)C(F)(F)COCC1CO1 (centres undefined) when you have a moment?
Reply: inactive

====

# assay name: CCTE_Padilla_ZF_144hpf_TERATOSCORE: (Legacy) CCTE's 144 Hour Post-fertilization zebrafish Assay Teratoscore, Padilla Lab (AID 2283679)
The source made the active and inactive calls. The calls were made as follows: active = hit-call score of the fitted dose curve at least 0.9, where 1 is the maximum; inactive = score below 0.9.
Parameter call: string, one of t for active, f for inactive

Known results for compounds:
Query: Dear colleague, could you share the recorded outcome for CCCCCCCCCCCCCCCCOS(=O)(=O)O when you have a moment?
Reply: t

Query: Dear colleague, could you share the recorded outcome for OCC(CO)(CO)CO when you have a moment?
Reply: f

Query: Dear colleague, could you share the recorded outcome for CCCCOC(=O)c1ccccc1 when you have a moment?
Reply: t

Query: Dear colleague, could you share the recorded outcome for CC(C)C(=O)Nc1ccc([N+](=O)[O-])c(C(F)(F)F)c1 when you have a moment?
Reply: t

Continue with the next compound.
Query: Dear colleague, could you share the recorded outcome for CCCc1ccccc1 when you have a moment?
Reply: f

====

# assay name: STM_H9_OrnCyssISnorm_ratio: Stemina devTOX quickPredict H9 human embryonic stem cell (hESC)-based Assay for Ornithine (ORN):Cystine (CYSS) Ratio (AID 2283714)
Records with an inconclusive call do not appear. Activity calls are given as the source filed them. How the source made its calls: active means hit-call score of the fitted dose curve at least 0.9, where 1 is the maximum; inconclusive means response in the unintended direction; inactive means score below 0.9.
Parameter call: string, one of Y (active), N (inactive)

Known results for molecules:
Query: Dear colleague, could you share the recorded outcome for OCCNCCO when you have a moment?
Reply: Y

Query: Dear colleague, could you share the recorded outcome for Cc1ncc([C@@H](CCCCCCc2ccc3c(n2)NCCC3)CC(=O)O)cn1 when you have a moment?
Reply: Y

Query: Dear colleague, could you share the recorded outcome for NC(=O)NN=Cc1ccc([N+](=O)[O-])o1 when you have a moment?
Reply: Y

More entries:
Query: Dear colleague, could you share the recorded outcome for CCCCN1C(=O)[C@@H]([C@H](O)C2CCCCC2)NC(=O)C12CCN(Cc1ccc(Oc3ccc(C(=O)O)cc3)cc1)CC2 when you have a moment?
Reply: Y

Query: Dear colleague, could you share the recorded outcome for O=S1(=O)CCCO1 when you have a moment?
Reply: Y

Query: Dear colleague, could you share the recorded outcome for NC(=O)N1c2ccccc2C=Cc2ccccc21 when you have a moment?
Reply: Y

Query: Dear colleague, could you share the recorded outcome for OC(Cn1cncn1)(Cn1cncn1)c1ccc(F)cc1F when you have a moment?
Reply: N

Query: Dear colleague, could you share the recorded outcome for CC(C)C(=O)Nc1ccc([N+](=O)[O-])c(C(F)(F)F)c1 when you have a moment?
Reply: Y

====

# assay name: APR_HepG2_P-H2AX_24hr: Apredica 24-hour HepG2 Assay for H2AX Phosphorylation (AID 2282920)
# particulars: high-content imaging, actives raise or lower the signal
Active and inactive are the calls of the source. Rule for the calls: active = hit-call score of the fitted dose curve at least 0.9, where 1 is the maximum; inactive = score below 0.9.
Parameter call: string, one of active, inactive

Known results for molecules:
Query: Dear colleague, could you share the recorded outcome for CCCCCCOC(=O)CC(CC(=O)OCCCCCC)(OC(=O)CCC)C(=O)OCCCCCC when you have a moment?
Reply: inactive

Query: Dear colleague, could you share the recorded outcome for OC(Cn1cncn1)(Cn1cncn1)c1ccc(F)cc1F when you have a moment?
Reply: inactive

Query: Dear colleague, could you share the recorded outcome for CC(=O)c1ccccc1 when you have a moment?
Reply: inactive

Continue with the next molecule.
Query: Dear colleague, could you share the recorded outcome for Cc1ncc([C@@H](CCCCCCc2ccc3c(n2)NCCC3)CC(=O)O)cn1 when you have a moment?
Reply: active

====

# Read-out: MYC, MYC (gene 4609)
# assay name: LTEA_HepaRG_MYC: Life Technologies and Expression Analysis (LTEA) Assay for MYC using HepaRG (AID 2283518)
# particulars: mRNA level, 48 h; actives raise or lower the signal
Active and inactive are the calls of the source. How the source made its calls: active means hit-call score of the fitted dose curve at least 0.9, where 1 is the maximum; inactive means score below 0.9.
Parameter call: string, one of active, inactive

Known results for compounds:
Query: Dear colleague, could you share the recorded outcome for NNC(=O)c1ccncc1 when you have a moment?
Reply: inactive

Query: Dear colleague, could you share the recorded outcome for O=C1CN(N=Cc2ccc([N+](=O)[O-])o2)C(=O)N1 when you have a moment?
Reply: active

Query: Dear colleague, could you share the recorded outcome for CCc1cccc(CC)c1N when you have a moment?
Reply: inactive

More entries:
Query: Dear colleague, could you share the recorded outcome for CCCCN1C(=O)[C@@H]([C@H](O)C2CCCCC2)NC(=O)C12CCN(Cc1ccc(Oc3ccc(C(=O)O)cc3)cc1)CC2 when you have a moment?
Reply: active

Query: Dear colleague, could you share the recorded outcome for Cn1cc[nH]c1=S when you have a moment?
Reply: inactive

Query: Dear colleague, could you share the recorded outcome for O=S1(=O)CCCO1 when you have a moment?
Reply: inactive

Query: Dear colleague, could you share the recorded outcome for OC[C@H]1O[C@@H]2O[C@H]3[C@H](O)[C@@H](O)[C@@H](O[C@H]4[C@H](O)[C@@H](O)[C@@H](O[C@H]5[C@H](O)[C@@H](O)[C@@H](O[C@H]6[C@H](O)[C@@H](O)[C@@H](O[C@H]7[C@H](O)[C@@H](O)[C@@H](O[C@H]1[C@H](O)[C@H]2O)O[C@@H]7CO)O[C@@H]6CO)O[C@@H]5CO)O[C@@H]4CO)O[C@@H]3CO when you have a moment?
Reply: inactive

Query: Dear colleague, could you share the recorded outcome for c1ccc2ncccc2c1 when you have a moment?
Reply: inactive

Query: Dear colleague, could you share the recorded outcome for CCCCCCCCN(C)C when you have a moment?
Reply: inactive

Query: Dear colleague, could you share the recorded outcome for O=C(O)c1ccc2c(c1)nc(C(=O)NC1CCN(C3CC3)CC1)n2Cc1cc(-c2ccc(Cl)s2)on1 when you have a moment?
Reply: inactive

Query: Dear colleague, could you share the recorded outcome for O=C(O)c1cccc(C[C@@H]2COc3ccc(OCc4nc5cc(F)ccc5s4)cc3[C@@H]2O)c1 when you have a moment?
Reply: inactive

Query: Dear colleague, could you share the recorded outcome for Nc1ccn([C@@H]2O[C@H](CO)[C@@H](O)[C@@H]2O)c(=O)n1 when you have a moment?
Reply: inactive

Query: Dear colleague, could you share the recorded outcome for Cc1nc(-c2ccccn2)ncc1C(=O)Nn1cc(C)c2cc(F)ccc21 when you have a moment?
Reply: inactive

Query: Dear colleague, could you share the recorded outcome for OCc1ccccc1 when you have a moment?
Reply: inactive

Query: Dear colleague, could you share the recorded outcome for CCCc1ccccc1 when you have a moment?
Reply: inactive

Query: Dear colleague, could you share the recorded outcome for CCCCOC(=O)c1ccccc1 when you have a moment?
Reply: inactive

Query: Dear colleague, could you share the recorded outcome for CCOC(N)=O when you have a moment?
Reply: inactive

Query: Dear colleague, could you share the recorded outcome for CCN(CC)C(=S)SSC(=S)N(CC)CC when you have a moment?
Reply: inactive

Query: Dear colleague, could you share the recorded outcome for CCCCCCCC1CCC(=O)O1 (centres undefined) when you have a moment?
Reply: inactive

Query: Dear colleague, could you share the recorded outcome for Cc1nccn1-c1ccc(Sc2cccc(C3(C(N)=O)CCOCC3)c2)cc1 when you have a moment?
Reply: active

Query: Dear colleague, could you share the recorded outcome for NC(=O)NN=Cc1ccc([N+](=O)[O-])o1 when you have a moment?
Reply: active

Query: Dear colleague, could you share the recorded outcome for CC[C@H](C)C(=O)O[C@H]1C[C@H](O)C=C2C=C[C@H](C)[C@H](CC[C@@H](O)C[C@@H](O)CC(=O)O)[C@H]21 when you have a moment?
Reply: inactive
